Experiment: in vivo
Settings: rat, sc
Outcome Measure: selectivity ratio

Known selectivity ratio results, listed for orientation:
{"Compound": "COc1ccc2[nH]cc(CCN3CCC(CC(=O)c4ccc(F)cc4)C3)c2c1.Cl (stereo not shown) [Ex. 1, hydrochloride]", "Result": "> 129"}
{"Compound": "COc1ccc2[nH]cc(CCCN3CCCC(C(=O)c4ccc(F)cc4)CC3)c2c1.Cl (stereo not shown) [Ex. 7, hydrochloride]", "Result": "> 80"}
{"Compound": "COc1ccc2[nH]cc(CCCN3CCC(Cc4noc5cc(F)ccc45)C3)c2c1.Cl (stereo not shown) [Ex. 9, hydrochloride]", "Result": "> 40"}
{"Compound": "COc1ccc2[nH]cc(CCCN3CCC(CC(=O)c4ccc(F)cc4)C3)c2c1.Cl (racemic) [Ex. 3, hydrochloride]", "Result": "> 266"}
{"Compound": "COc1ccc2c(c1)c(CCN1CCC(CC(=O)c3ccc(F)cc3)C1)cn2C.Cl (stereo not shown) [Ex. 2, hydrochloride]", "Result": "> 32"}

Parameters: items (list). Returns: selectivity ratio for each item.
1. Cl.O=C(CC1CCN(CCCc2c[nH]c3ccc(F)cc23)C1)c1ccc(F)cc1 (stereo not shown) [Ex. 8, hydrochloride]
2. COc1ccc2[nH]cc(CCCN3CCC(C(=O)c4ccc(F)cc4)CC3)c2c1.Cl [Ref. A, hydrochloride, reference compound]

Given back:
["> 80", 14]
